test system: SF-268; test: NCI tumour cell line growth inhibition, 48 h
Active and inactive are the calls of the source. Cut-off read from the data, not from the text of the source: active = GI50 up to about 1.1 µM and inactive = higher.
# GI50 annotations

Example molecules with recorded GI50:
INSERT INTO results (molecule, value) VALUES
  ('CCOC(=O)C(C)c1nc2cc(F)c(F)cc2[nH]c1=O (stereo not given)', '> 100 µM (inactive)'),
  ('CC(=O)Oc1ccc(/C=C/C(=O)O[C@@H](C(=O)O)[C@@H](OC(=O)/C=C/c2ccc(OC(C)=O)c(OC(C)=O)c2)C(=O)O)cc1OC(C)=O', '> 100 µM (inactive)'),
  ('c1ccc(-c2cnc(-c3ccc(-c4ncc(-c5ccccc5)o4)cc3)o2)cc1', '> 100 µM (inactive)'),
  ('O=C1C=CC(=O)c2cc(Sc3ccccc3)c(=O)c(Sc3ccccc3)cc21', '42 µM (inactive)'),
  ('Cc1n(CC(=O)c2ccc([N+](=O)[O-])cc2)c2c([n+]1CC(C)C)C(=O)c1ccccc1C2=O', '< 0.01 µM (active)'),
  ('COc1ccc(C(=O)C/C(=N/NC(N)=S)C(=O)Nc2ccccc2)cc1', '> 100 µM (inactive)'),
  ('COc1ccc(/C=N/NC(=S)Nc2cc(C)ccc2OC)cc1', '48.9 µM (inactive)'),
  ('COC(=O)C1=C(O)C(O)=C(C(=O)OC)CC1', '> 100 µM (inactive)'),
  ('COc1c(C(=O)c2ccc([N+](=O)[O-])cc2)cc(C(C)(C)C)cc1C(C)(C)C', '34.4 µM (inactive)'),
  ('N#Cc1c(Cl)cccc1Oc1ccc(S(=O)(=O)/N=C(\NN)Nc2ccc(Cl)cc2)cc1', '22.8 µM (inactive)');

Asked: Please look up its GI50: COc1cc(C(=O)N(Cc2cccnc2)C(=S)N(Cc2cccnc2)C(=O)c2cc(OC)c(OC)c(OC)c2)cc(OC)c1OC
Given back: 40.4 µM (inactive)

Asked: Can you handle Cc1ccc2c(=O)c(C(=O)N(CCO)CCO)c[nH]c2n1 next?
Given back: > 100 µM (inactive)

Asked: Similarly, COc1cccc(CCn2c(N)c(-c3cc(Cl)cc(Cl)c3)c3ccc([N+](=O)[O-])cc3c2=O)c1 ?
Given back: 5.86 µM (inactive)

Asked: What do you have for Cc1ccc(S(=O)(=O)NC(CN)C(=O)O)cc1 (stereo not given) ?
Given back: > 100 µM (inactive)

Asked: Moving on to O=[N+]([O-])c1cccc(S(=O)(=O)N/N=C/c2cc(I)cc([N+](=O)[O-])c2O)c1
Given back: 30.1 µM (inactive)

Asked: Also need Cc1cc2c(cc1C)NC(=O)C(NC(=O)/C=C/c1ccccc1)C=N2 (stereo not given) , thanks.
Given back: 29.9 µM (inactive)

Asked: Same for COc1cc(C2S/C(=C/c3ccccc3)C(=O)N2c2cccc(Cl)c2)cc(OC)c1OC (stereo not given)
Given back: 77.1 µM (inactive)

Asked: Please do the same for c1ccc(C2=NNC3c4ccccc4-c4ccccc4N3C2)cc1 (stereo not given) as well.
Given back: 44.9 µM (inactive)

Asked: Then this molecule: COC(=O)C1=C(C)C(=O)[C@H]2C(C(=O)OC)CCCC[C@@H]12 (stereo not given in full)
Given back: > 100 µM (inactive)

Asked: And CCOC(=O)C(=O)C(/C(=N/N(C)C)C(=O)Nc1ccc(C)cc1C)c1nc2ccccc2nc1O (stereo not given) ?
Given back: > 100 µM (inactive)

All values here come from ChEMBL document CHEMBL1201862.
